# Test system: Vero E6 infected with SARS-CoV-2
# method-description: SARS-CoV-2 infection rate relative to infected DMSO; higher = more infection, active = 60 or less
# experimental-parameters: 24 h
Counter-ions that a name gives are not always drawn.
Hi there, use one of these labels in your reply, thanks! active, inactive

Data request: Recorded call for O=c1oc2ccccc2c(O)c1Cc1c(O)c2ccccc2oc1=O [dicoumarol] (10 µM) ?
Data returned: inactive

Data request: Now the same for CNC(=O)[C@H](Cc1ccccc1)NC(=O)[C@H](CC(C)C)[C@H](CSc1cccs1)C(=O)NO [batimastat] (10 µM)
Data returned: inactive

Data request: Further, for CCCCNc1cc(C(=O)O)cc(S(N)(=O)=O)c1Oc1ccccc1 [bumetanide] (10 µM) ?
Data returned: inactive

Data request: Proceed to C[C@@H](N)c1ccc(C(=O)Nc2ccnc3[nH]ccc23)cc1 (10 µM)
Data returned: inactive

Data request: Thanks! And CN1CCCCC1Cn1cc(C(=O)c2cc([N+](=O)[O-])ccc2I)c2ccccc21 (stereo unspecified) (10 µM) ?
Data returned: inactive

Data request: Try COc1c(OCCCN2CCOCC2)ccc2c1N=C(NC(=O)c1cnc(N)nc1)N1CCN=C21 [copanlisib] (0.833333 µM) next.
Data returned: active

Data request: Similarly, Cc1ccsc1C(=CCCN1CCC[C@@H](C(=O)O)C1)c1sccc1C [tiagabine] (10 µM) ?
Data returned: inactive

Data request: Item: CC(C)C[C@@H](C(=O)N[C@H](C(=O)OC1CCCC1)c1ccccc1)[C@H](O)C(=O)NO [tosedostat] (10 µM)
Data returned: inactive

Data request: Please give the result for CON(C)C(=O)[C@H](O)[C@H](Cc1ccccc1)NC(=O)c1cc2cc(Cl)ccc2[nH]1 (10 µM) too.
Data returned: inactive

Data request: Could you do the same for c1ccc2cc(C3=NCCN3)ncc2c1 (10 µM) , please?
Data returned: inactive

Data request: Moving on to CN1CCN(c2nc3ccccc3nc2Cl)CC1 (10 µM)
Data returned: inactive

Data request: Same read-out for CCSC(=N)N [EIT-hydrobromide] (10 µM) ?
Data returned: inactive

Data request: Next molecule: CC(C)OC(=O)N1CCC(Oc2ncnc3c2cnn3-c2ccc(S(C)(=O)=O)cc2F)CC1 (10 µM)
Data returned: inactive

Data request: Quick one: O=C1Nc2ccccc2C2(CCN(CCc3ccc(C(F)(F)F)cc3)CC2)O1 (10 µM)
Data returned: inactive

Data request: And for C[C@@H]1NC(=O)[C@@H](N)CNC(=O)[C@H](C2CCNC(=N)N2)NC(=O)/C(=C/NC(N)=O)NC(=O)[C@H](CNC(=O)CC(N)CCCN)NC1=O.N=C1NCC[C@H]([C@@H]2NC(=O)/C(=C/NC(N)=O)NC(=O)[C@H](CNC(=O)C[C@@H](N)CCCN)NC(=O)[C@H](CO)NC(=O)[C@@H](N)CNC2=O)N1 [capreomycin] (10 µM) ?
Data returned: inactive

Data request: What do we get for CC(C)[C@](O)(c1ccc2cc(OC(F)F)c(OC(F)F)cc2c1)c1c[nH]nn1 (10 µM) ?
Data returned: inactive

* * *

# System: Vero E6 infected with SARS-CoV-2
# method-description: inhibition of SARS-CoV-2 cytopathic effect; higher = more antiviral protection, active = above 15
# experimental-parameters: 8.33 nM; 48 h
property: inhibition of SARS-CoV-2 cytopathic effect (%)
Only the number, expressed in %, is required.

Data request: Would you kindly share the measured inhibition of SARS-CoV-2 cytopathic effect for NCC(=O)Nc1ccc(-n2nc(C(F)(F)F)cc2-c2ccc3c(ccc4ccccc43)c2)cc1 ?
Data returned: 2.22

Data request: Try Nc1nc2ccc(Cl)cc2c2nc(-c3ccco3)nn12 next.
Data returned: 1.43

Data request: And for COc1cc(N)c(Cl)cc1C(=O)OCCN1CCCCC1 ?
Data returned: 2.09

Data request: CC(C)C[C@@H](C(=O)N[C@H](C(=O)OC1CCCC1)c1ccccc1)[C@H](O)C(=O)NO [tosedostat] , same question.
Data returned: 6.05

Data request: Same again, this time with Cc1c(CC(C)(C)C(=O)O)n(Cc2ccc(Cl)cc2)c2ccc(F)cc12
Data returned: 2.25

Data request: Can you handle COc1ccc(Nc2nccc(NCCO)n2)cc1 [cardiogenol-C] next?
Data returned: -0.02

Data request: Next compound: Cc1ncc(CO)c(C=O)c1O [pyridoxal]
Data returned: 2.21

Data request: Next compound up: CCCn1cnc2c1c(=O)n(CCCCC(C)=O)c(=O)n2C [propentofylline]
Data returned: 2.46

Data request: Here is the next compound: CCN(CC)C(=O)[C@@]1(c2ccccc2)C[C@H]1CN [milnacipran]
Data returned: -3.38

Data request: Also, c1ccc(Oc2cccnc2)cc1 please.
Data returned: 1.64

Data request: Param item: Cc1ccc(/C(=C\CN2CCCC2)c2cccc(/C=C/C(=O)O)n2)cc1 [acrivastine]
Data returned: -0.13

Data request: Now give it for O=C(NOCC1CC1)c1ccc(F)c(F)c1Nc1ccc(I)cc1Cl too.
Data returned: -0.84

Data request: Same question for CC(C)c1cc(C(=O)N2Cc3ccc(CN4CCN(C)CC4)cc3C2)c(O)cc1O please.
Data returned: -3.96

Data request: Now the same for CN1C(=O)C[C@@H](C(=O)N[C@@H](Cc2c[nH]cn2)C(=O)N2CCC[C@H]2C(N)=O)NC1=O [taltirelin]
Data returned: 3.69

Data request: Request: Cc1[nH]c2ccccc2c1CCNC(=O)c1cccs1
Data returned: -2.61

Data request: Now consider O=C(O)/C=C(/CC(=O)O)C(=O)O [cis-aconitic-acid] .
Data returned: 0.49

Data request: Can you handle CCc1cncnc1N1CCN(Cc2nc3cc(C(F)(F)F)ccc3[nH]2)CC1 next?
Data returned: -0.7

Data request: Next record, please: O=NN(CCCl)C(=O)NC1CCCCC1 [lomustine]
Data returned: 1.26

Data request: # iterate: Cc1cc([N+](=O)[O-])ccc1NS(=O)(=O)c1cc(Cl)ccc1Cl
Data returned: -2.34

Data request: Okay, and O=C1c2ccccc2-n2c1nc1ccccc1c2=O [tryptanthrin] ?
Data returned: -0.23

Data request: Same question for CCCCCCCCCCCCCC(=O)OC(C)C [isopropyl-myristate] please.
Data returned: 0.41

* * *

# Test system: Vero E6 infected with SARS-CoV-2
# method-description: SARS-CoV-2 infection rate relative to infected DMSO; higher = more infection, active = 60 or less
# experimental-parameters: 24 h
Please provide measured SARS-CoV-2 infection rate for the entries that follow.
// note: answer is a bare numeric in %

Data request: Record request: SARS-CoV-2 infection rate value, item CC(=O)c1ccc2c(c1)N(CCCN1CCC(CCO)CC1)c1ccccc1S2 [piperacetazine] (10 µM)
Data returned: 75

Data request: Please give the result for CC(C)NCC(O)COc1ccc(COCCOC(C)C)cc1 (stereo not drawn) [bisoprolol] (10 µM) too.
Data returned: 106

Data request: Another compound to look at: CCOC(=O)C(=O)Nc1cccc(OC)c1C(N)=O (10 µM)
Data returned: 102

Data request: Moving on to NC(=O)c1cccc(-c2cccc(OC(=O)NC3CCCCC3)c2)c1 (10 µM)
Data returned: 104

Data request: Next record, please: c1cc(OCCN2CCCCC2)cc(-c2n[nH]c3ccc(-c4nnc[nH]4)cc23)c1 (10 µM)
Data returned: 94.5

Data request: Next: C[C@@H]1c2ccccc2CN1CC1=NCCN1 (racemic) (10 µM)
Data returned: 92.5

Data request: Cool, now CC(N)C12CC3CC(CC(C3)C1)C2 (stereo not drawn) [rimantadine] (10 µM)
Data returned: 102

Data request: Field entry: CC(=O)NC1CCSC1=O (stereo not drawn) [citiolone] (10 µM)
Data returned: 107

Data request: Next: O=C1Nc2ccc(I)cc2C1=Cc1cc(Br)c(O)c(Br)c1 (10 µM)
Data returned: 98.5

Data request: Same read-out for C[C@H](Nc1ncnc2nc[nH]c12)c1cc2cccc(Cl)c2c(=O)n1-c1ccccc1 [duvelisib] (0.833333 µM) ?
Data returned: 99

Data request: And O=C(c1cn(Cc2cncn2Cc2ccc(Br)cc2)cc1-c1cccc2ccccc12)N1CCOCC1 (0.833333 µM) ?
Data returned: 94.5

Data request: Okay, and Cc1nn(C)c2nc(NNC(=O)Nc3cc(Cl)nc(Cl)c3)cc(C(C)C)c12 (10 µM) ?
Data returned: 108

Data request: Next compound up: COCC1(CO)C(=O)C2CCN1CC2 (stereo not drawn) (10 µM)
Data returned: 80.5

Data request: O=C(Nc1cnn2ccc(N3CCC[C@@H]3c3cc(F)ccc3F)nc12)N1CC[C@H](O)C1 [larotrectinib] (10 µM) ?
Data returned: 122

Data request: Lookup O=NN(CCCl)C(=O)NC1CCCCC1 [lomustine] (10 µM)
Data returned: 108

Data request: Next record, please: Nc1nc(F)nc2c1ncn2[C@@H]1O[C@H](COP(=O)(O)O)[C@@H](O)[C@@H]1O [fludarabine-phosphate] (10 µM)
Data returned: 82.5

Data request: O=c1[nH]c2ccccc2n1CCCN1CCC(n2c(=O)[nH]c3cc(Cl)ccc32)CC1 [domperidone] (10 µM) , same question.
Data returned: 110

Data request: Also CN(C)C(=O)c1ccc(S(=O)(=O)c2ccc(NC(=O)[C@@](C)(O)C(F)(F)F)c(Cl)c2)cc1 (10 µM) ?
Data returned: 104
